- Test system: MX-1
- measurement-notes: Cytotoxicity assay, MTT method, MX-1 cells
- settings: read-out: Cytotoxicity (IC50, nM) MX-1; 72 hours of drug exposure at 37° C. under 5% CO2
property-name: IC50
Mention the unit after the number when you answer.

Data request: Quick check: IC50 of CC(=O)O[C@@]12CO[C@@H]1C[C@H](O)[C@@]1(C)C(=O)[C@H](OC(=O)C3CC3)C3=C(C)[C@@H](OC(=O)[C@H](O)[C@H](C=C(C)C)NC(=O)OC(C)(C)C)C[C@@](O)([C@@H](OC(=O)c4ccccc4)[C@H]21)C3(C)C ?
Data returned: 2.9 nM

###

- System: ID-8
- measurement-notes: Cytotoxicity assay, MTT method, ID-8 cells
- settings: read-out: Cytotoxicity (IC50, nM) ID-8; 72 hours of drug exposure at 37° C. under 5% CO2
property-name: IC50

Data request: Reported IC50 for ID-8, given CC(=O)O[C@@]12CO[C@@H]1C[C@H](O)[C@@]1(C)C(=O)[C@H](OC(=O)C3CC3)C3=C(C)[C@@H](OC(=O)[C@H](O)[C@H](C=C(C)C)NC(=O)OC(C)(C)C)C[C@@](O)([C@@H](OC(=O)c4ccccc4)[C@H]21)C3(C)C [SB-T-1214] ?
Data returned: 1.89 nM

###

- measurement-notes: in vitro
- settings: human
property-name: IC50 at 72 h (nM)
# output: bare number, implied unit nM

Data request: Quick check: IC50 at 72 h of CC(=O)O[C@H]1C(=O)[C@@]2(C)[C@H]([C@H](OC(=O)c3ccccc3)[C@]3(O)C[C@H](OC(=O)[C@H](O)[C@@H](NC(=O)c4ccccc4)c4ccccc4)C(C)=C1C3(C)C)[C@]1(OC(C)=O)CO[C@@H]1C[C@@H]2O ?
Data returned: 175

###

- Test system: WI-38
- measurement-notes: Cytotoxicity assay, MTT method, WI-38 cells
- settings: read-out: Cytotoxicity (IC50, nM) WI-38; 72 hours of drug exposure at 37° C. under 5% CO2
property-name: IC50
Mention the unit after the number when you answer.

Data request: Quick check: IC50 of CC(=O)O[C@@]12CO[C@@H]1C[C@H](O)[C@@]1(C)C(=O)[C@H](OC(=O)C3CC3)C3=C(C)[C@@H](OC(=O)[C@H](O)[C@H](C=C(C)C)NC(=O)OC(C)(C)C)C[C@@](O)([C@@H](OC(=O)c4ccccc4)[C@H]21)C3(C)C ?
Data returned: 4.14 nM
